test method notes: Compound stability in human liver microsomes
Format: in vitro ADME
applied conditions: pH 7.4; Human liver microsomes 0.5 mg protein/mL, compound 5 μM, NADPH 1.0 mM, 37° C.
Classification by half-life at 5 μM | ranges: band 1 = under 1 h, band 2 = from 1 h up to 3 h, band 3 = 3 h and over

{"compound": "Cn1cc(Nc2ncc(C#N)c(NC3CC4CN(C(=O)CC#N)CC4C3)n2)cn1 (stereo not drawn) [Ex. 67]", "discrete label": "band 3"}
{"compound": "COc1cnc(Nc2cc(C3CC3)[nH]n2)nc1NC1CC2CN(C(=O)CC#N)CC2C1 (stereo not drawn) [Ex. 52]", "discrete label": "band 2"}
{"compound": "Cn1cc(Nc2ncc(Cl)c(NC3CC4CN(C(=O)CC#N)CC4C3)n2)cn1 (stereo not drawn) [Ex. 12]", "discrete label": "band 3"}
{"compound": "Cn1nc(C2CC2)cc1Nc1ncc(Cl)c(NC2CC3CN(C(=O)CC#N)CC3C2)n1 (stereo not drawn) [Ex. 56]", "discrete label": "band 1"}
{"compound": "Cc1cnc(Nc2cnn(C)c2)nc1NC1CC2CN(S(C)(=O)=O)CC2C1 (stereo not drawn) [Ex. 62]", "discrete label": "band 3"}
{"compound": "Cc1c(Nc2ncc(Cl)c(NC3CC4CN(C(=O)CC#N)CC4C3)n2)cnn1C (stereo not drawn) [Ex. 66]", "discrete label": "band 2"}
{"compound": "CN(c1nc(Nc2cnn(C)c2)ncc1Cl)C1CC2CN(C(=O)CC#N)CC2C1 (stereo not drawn) [Ex. 69]", "discrete label": "band 2"}
{"compound": "Cn1cc(Nc2ncc(Cl)c(NC3CCC4CN(C(=O)CC#N)CC4C3)n2)cn1 (stereo not drawn) [Ex. 22]", "discrete label": "band 2"}
{"compound": "Cn1cc(Nc2ncc(Cl)c(NC3CC4CN(C(=O)C(F)(F)F)CC4C3)n2)cn1 (stereo not drawn) [Ex. 34]", "discrete label": "band 1"}
